Tested on: Human monocyte cell line THP-1
assayNotes: Detection of THP-1 cell pyroptosis (Caspase-Glo 1 Inflammasome Assay)
Assay type: cell-based
runParameters: Homo sapiens, THP-1, THP-1 pyroptosis, 20 nM PMA 48 h, 1 μg/mL LPS, compound 3 h
Procedure: Human monocyte cell line THP-1 (ATCC® TB-202TM) was cultured in RPMI-1640 culture medium containing […], 1 mM pyruvic acid, 0.05 mM β-mercaptoethanol and 10% double antibody under the culture conditions of 37° C. and […]. Cell counting was performed, THP-1 cells were seeded into a 96-well plate at 50000 per well, and 20 nM PMA was added for inducing at 37° C./5% CO2 for 48 h. […] IC50 was calculated using GraphPad Prism7.0 software.
pIC50: −log10 of the molar value.
The following compounds are listed with their measured pIC50 values.

What value of pIC50 has been reported for the following compound? C[C@@H](c1ccc2c(c1NC(=O)NS(=O)(=O)c1cc(C(C)(C)O)co1)CCC2)C1CC1
≥ 7.00

// lookup pIC50 for C[C@@H](c1cc(F)c2c(c1NC(=O)N[S@@](=N)(=O)c1cc(C(C)(C)O)co1)CCC2)C1CC1 (single isomer, unassigned) [Compound 42-2]
≥ 7.00

Field request: pIC50 | item: C[C@H](c1ccc2c(c1NC(=O)N[S@](=N)(=O)c1cc(C(C)(C)O)cs1)CCC2)C1CC1
6.30 to 7.00

Suppose we examine the compound C[C@@H](c1ccc2c(c1NC(=O)NS(=O)(=O)c1cc(C(C)(C)O)co1)CC2)C1CC1 ; what pIC50 value has been reported?
6.30 to 7.00

Next:
Give its pIC50 value. Item: C[C@@H](c1ccc2c(c1NC(=O)NS(=O)(=O)c1cc(C3(O)CC3)co1)CCC2)C1CC1
6.00 to 6.30

Can you look up the measured pIC50 of CC(C)c1cccc([C@@H](C)C2CC2)c1NC(=O)NS(=O)(=O)c1cc(C(C)(C)O)co1 for me?
6.30 to 7.00

If you can, please state the reported pIC50 value of [2H]c1cc([C@H](C)C2CC2)c(NC(=O)NS(=O)(=O)c2cc(C(C)(C)O)co2)c2c1CCC2 .
6.30 to 7.00

May I ask what pIC50 has been recorded for C[C@H](c1cc(F)c2c(c1NC(=O)N[S@@](=N)(=O)c1cc(C(C)(C)O)co1)CCC2)C1CC1 (single isomer, unassigned) ?
≥ 7.00

Can you look up the measured pIC50 of CC(C)c1cccc([C@H](C)C2CC2)c1NC(=O)NS(=O)(=O)c1cc(C(C)(C)O)co1 for me?
6.30 to 7.00

Quick one: pIC50 of C[C@@H](c1cc(F)c2c(c1NC(=O)NS(=O)(=O)c1cc(C(C)(C)O)co1)CCC2)C1CC1 ?
≥ 7.00

Would you mind telling me what pIC50 value was observed for CC(c1ccc2c(c1NC(=O)NS(=O)(=O)c1cc(C(C)(C)O)co1)CCC2)C1CC1 (centres unmarked) ?
6.30 to 7.00

Which pIC50 is listed for Cc1oc(S(=O)(=O)NC(=O)Nc2c([C@H](C)C3CC3)ccc3c2CCC3)cc1C(C)(C)O ?
≥ 7.00

###

assayNotes: Pharmacokinetic analysis of compounds in rats
Format: in vivo, SD rats
runParameters: SD, rat, in vivo, iv, 1 mg/kg
propertyMeasured: Vd

Would you mind telling me what Vd value was observed for C[C@@H](c1cc(F)c2c(c1NC(=O)N[S@@](=N)(=O)c1cc(C(C)(C)O)co1)CCC2)C1CC1 (single isomer, unassigned) ?
0.503 L/kg

Can you share its Vd? I mean this compound: CC(C)(O)c1coc(S(=O)(=O)NC(=O)Nc2c3c(cc4c2CCC4)CCC3)c1 [Control 3, reference compound]
0.402 L/kg

Here is the next item to consider.
Would you mind telling me what Vd value was observed for C[C@H](c1cc(F)c2c(c1NC(=O)N[S@@](=N)(=O)c1cc(C(C)(C)O)co1)CCC2)C1CC1 (single isomer, unassigned) ?
0.537 L/kg
